B1: tRNA (parent)
chain: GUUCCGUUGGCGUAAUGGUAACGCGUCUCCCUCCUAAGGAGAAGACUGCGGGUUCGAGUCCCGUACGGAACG

- Variants of: B1
- Protocol description: yeast fitness relative to wild type (ratio to wild type); higher = fitter; tRNA-Arg(CCU), competitive growth, 37 C, YPD
Fewer inactive variants are shown than the library holds.
Class 1.0: yeast fitness at least 0.6. Class 0.0: yeast fitness below 0.6.

Entry A14U U35C C66G : is its yeast fitness no less than 0.6?
0.0

Entry C24G C33G A36C A37C A42C : is its yeast fitness no less than 0.6?
0.0

Entry U7C C31G G41A G52C C60U C62G C66G : is its yeast fitness no less than 0.6?
0.0

Entry G23C G38C A40U G58C : is its yeast fitness no less than 0.6?
0.0

Entry C11G G25A U32C G50A G51U U59A U64A : is its yeast fitness no less than 0.6?
1.0

Entry G23C G67A : is its yeast fitness no less than 0.6?
0.0

Entry U7A C29G G50A U64C : is its yeast fitness no less than 0.6?
0.0

Entry U53A G56A A65U : is its yeast fitness no less than 0.6?
0.0

Entry U2G A42U : is its yeast fitness no less than 0.6?
1.0

Entry C24G A42U : is its yeast fitness no less than 0.6?
0.0

Entry G38C A42C A65C : is its yeast fitness no less than 0.6?
0.0

Entry C5G C11A C46G : is its yeast fitness no less than 0.6?
1.0

Entry C27A A37G U53A : is its yeast fitness no less than 0.6?
0.0

Entry C5G C55U A69U : is its yeast fitness no less than 0.6?
0.0

Entry C5G A43C G52C : is its yeast fitness no less than 0.6?
0.0

Entry G10C C31A U32C G39A G52C : is its yeast fitness no less than 0.6?
0.0

Entry G10C U19A A37C : is its yeast fitness no less than 0.6?
0.0

Entry A40G G68A : is its yeast fitness no less than 0.6?
1.0

Entry U26A C34G G56A : is its yeast fitness no less than 0.6?
0.0

Entry G12C C49A : is its yeast fitness no less than 0.6?
0.0

Entry A20C C29U G50C U59G C62U G68A : is its yeast fitness no less than 0.6?
0.0

Entry U2C G10A U54A C62U C66A : is its yeast fitness no less than 0.6?
0.0

Ref: the RNAGym collection of RNA variant scans (doi:10.1126/science.aae0568)
